Test system: 521955-158-R2-J5-PDC complex spheroids, viability
Test: Anticancer human tumor 521955-158-R2-J5-PDC patient-derived pancreatic carcinoma cell line growth inhibition [RAS]
Conditions: second compound 0.1 µM; first compound 3.16 µM; active compounds read low
assay metric: viability, T/C (%)
Use % as the unit, but write only the number.

## Input Recall and state the measured viability, T/C for CC(C)NCC(C(=O)N1CCN(c2ncnc3c2C(C)CC3O)CC1)c1ccc(Cl)cc1 (centres undefined) + C=CC(=O)N1CCN(c2nc(OCC3CCCN3C)nc3c(F)c(-c4nc(N)cc(C)c4C(F)(F)F)c(Cl)cc23)C(C)C1 .
## Output 67.1

## Input Recall and state the measured viability, T/C for CC(=O)OC12COC1CC(O)C1(C)C(=O)C(O)C3=C(C)C(OC(=O)C(O)C(NC(=O)OC(C)(C)C)c4ccccc4)CC(O)(C(OC(=O)c4ccccc4)C21)C3(C)C (centres undefined) + C#Cc1c(F)ccc2cc(O)cc(-c3ncc4c(N5CC6CCC(C5)N6)nc(OCC56CCCN5CC(F)C6)nc4c3F)c12 .
## Output 35.6

## Input Recall and state the measured viability, T/C for CC1(O)CCCC1n1c(=O)c(C(F)F)cc2cnc(NC3CCN(S(C)(=O)=O)CC3)nc21 (centres undefined) + C=CC(=O)N1CCN(c2nc(OCC3CCCN3C)nc3c(F)c(-c4nc(N)cc(C)c4C(F)(F)F)c(Cl)cc23)C(C)C1 .
## Output 111

## Input Recall and state the measured viability, T/C for CC1(O)CCCC1n1c(=O)c(C(F)F)cc2cnc(NC3CCN(S(C)(=O)=O)CC3)nc21 (centres undefined) + C#Cc1c(F)ccc2cc(O)cc(-c3ncc4c(N5CC6CCC(C5)N6)nc(OCC56CCCN5CC(F)C6)nc4c3F)c12 .
## Output 73

====

Tested on: 521955-158-R2-J5-PDC complex spheroids, viability
Assay: Anticancer human tumor 521955-158-R2-J5-PDC cell line growth inhibition [RAS];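 further: spheroids also contain HUVEC endothelial cells and mesenchymal stem cells as stroma; compound exposure lasted seven days before the viability read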
Details: second compound 0.003 µM; first compound 0.1 µM; active compounds read low
For each entry below, report its viability, T/C value.
Use % as the unit, but write only the number.

## Input Recall and state the measured viability, T/C for CC1(O)CCCC1n1c(=O)c(C(F)F)cc2cnc(NC3CCN(S(C)(=O)=O)CC3)nc21 (stereo not given) + CCn1c(-c2cc(N3CCN(C)CC3)cnc2C(C)OC)c2c3cc(ccc31)-c1csc(n1)CC(NC(=O)C1CC1C)C(=O)N1CCCC(N1)C(=O)OCC(C)(C)C2 .
## Output 34.5

## Input Recall and state the measured viability, T/C for CC(Nc1ccc2c(c1)OCCn1cc(N3C(=O)OCC3C(F)F)nc1-2)C(N)=O (stereo not given) + CCn1c(-c2cccnc2C(C)OC)c2c3cc(ccc31)N1CCOC(CC(NC(=O)C(C(C)C)N(C)C(=O)C3(F)CCN(C(=O)C#CC(C)(C)N(C)C)CC3)C(=O)N3CCCC(N3)C(=O)OCC(C)(C)C2)C1 .
## Output 36.6

## Input Recall and state the measured viability, T/C for CC1(O)CCCC1n1c(=O)c(C(F)F)cc2cnc(NC3CCN(S(C)(=O)=O)CC3)nc21 (stereo not given) + CCn1c(-c2cccnc2C(C)OC)c2c3cc(ccc31)N1CCOC(CC(NC(=O)C(C(C)C)N(C)C(=O)C3(F)CCN(C(=O)C#CC(C)(C)N(C)C)CC3)C(=O)N3CCCC(N3)C(=O)OCC(C)(C)C2)C1 .
## Output 67.8

## Input Recall and state the measured viability, T/C for O=C(c1ccc(F)c(F)c1Nc1ccc(I)cc1F)N1CC(O)([C@@H]2CCCCN2)C1 + CCn1c(-c2cc(N3CCN(C)CC3)cnc2C(C)OC)c2c3cc(ccc31)-c1csc(n1)CC(NC(=O)C1CC1C)C(=O)N1CCCC(N1)C(=O)OCC(C)(C)C2 .
## Output 26.8

## Input Recall and state the measured viability, T/C for CC(C)NCC(C(=O)N1CCN(c2ncnc3c2C(C)CC3O)CC1)c1ccc(Cl)cc1 (stereo not given) + CCn1c(-c2cc(N3CCN(C)CC3)cnc2C(C)OC)c2c3cc(ccc31)-c1csc(n1)CC(NC(=O)C1CC1C)C(=O)N1CCCC(N1)C(=O)OCC(C)(C)C2 .
## Output 37

## Input Recall and state the measured viability, T/C for CCC(CC)c1cc(NC2CCC(N)C2)n2nccc2n1 (stereo not given) + CCn1c(-c2cccnc2C(C)OC)c2c3cc(ccc31)N1CCOC(CC(NC(=O)C(C(C)C)N(C)C(=O)C3(F)CCN(C(=O)C#CC(C)(C)N(C)C)CC3)C(=O)N3CCCC(N3)C(=O)OCC(C)(C)C2)C1 .
## Output 108

## Input Recall and state the measured viability, T/C for C=CC(=O)N1CCN(c2nc(OCC3CCCN3C)nc3c(F)c(-c4nc(N)cc(C)c4C(F)(F)F)c(Cl)cc23)C(C)C1 (stereo not given) + CCn1c(-c2cc(N3CCN(C)CC3)cnc2C(C)OC)c2c3cc(ccc31)-c1csc(n1)CC(NC(=O)C1CC1C)C(=O)N1CCCC(N1)C(=O)OCC(C)(C)C2 .
## Output 49.3

## Input Recall and state the measured viability, T/C for NC1c2ccccc2OC12CCN(c1cnc3c(N4CCCc5ncccc54)n[nH]c3n1)CC2 (stereo not given) + CCn1c(-c2cccnc2C(C)OC)c2c3cc(ccc31)N1CCOC(CC(NC(=O)C(C(C)C)N(C)C(=O)C3(F)CCN(C(=O)C#CC(C)(C)N(C)C)CC3)C(=O)N3CCCC(N3)C(=O)OCC(C)(C)C2)C1 .
## Output 51

## Input Recall and state the measured viability, T/C for C[C@@H](NC(=O)c1ncnc(N)c1Cl)c1ncc(C(=O)Nc2cc(C(F)(F)F)c(Cl)cn2)s1 + CCn1c(-c2cccnc2C(C)OC)c2c3cc(ccc31)N1CCOC(CC(NC(=O)C(C(C)C)N(C)C(=O)C3(F)CCN(C(=O)C#CC(C)(C)N(C)C)CC3)C(=O)N3CCCC(N3)C(=O)OCC(C)(C)C2)C1 .
## Output 121

## Input Recall and state the measured viability, T/C for CC(Nc1ccc2c(c1)OCCn1cc(N3C(=O)OCC3C(F)F)nc1-2)C(N)=O (stereo not given) + CCn1c(-c2cc(N3CCN(C)CC3)cnc2C(C)OC)c2c3cc(ccc31)-c1csc(n1)CC(NC(=O)C1CC1C)C(=O)N1CCCC(N1)C(=O)OCC(C)(C)C2 .
## Output 22.1

## Input Recall and state the measured viability, T/C for C=CC(=O)N1CCN(c2nc(OCC3CCCN3C)nc3c(F)c(-c4nc(N)cc(C)c4C(F)(F)F)c(Cl)cc23)C(C)C1 (stereo not given) + CCn1c(-c2cccnc2C(C)OC)c2c3cc(ccc31)N1CCOC(CC(NC(=O)C(C(C)C)N(C)C(=O)C3(F)CCN(C(=O)C#CC(C)(C)N(C)C)CC3)C(=O)N3CCCC(N3)C(=O)OCC(C)(C)C2)C1 .
## Output 113

## Input Recall and state the measured viability, T/C for Cc1nc(N2CCC3(CC2)COC(C)C3N)c(CO)nc1Sc1ccnc(N)c1Cl (stereo not given) + CCn1c(-c2cccnc2C(C)OC)c2c3cc(ccc31)N1CCOC(CC(NC(=O)C(C(C)C)N(C)C(=O)C3(F)CCN(C(=O)C#CC(C)(C)N(C)C)CC3)C(=O)N3CCCC(N3)C(=O)OCC(C)(C)C2)C1 .
## Output 61.3

## Input Recall and state the measured viability, T/C for CC(=O)OC12COC1CC(O)C1(C)C(=O)C(O)C3=C(C)C(OC(=O)C(O)C(NC(=O)OC(C)(C)C)c4ccccc4)CC(O)(C(OC(=O)c4ccccc4)C21)C3(C)C (stereo not given) + CCn1c(-c2cc(N3CCN(C)CC3)cnc2C(C)OC)c2c3cc(ccc31)-c1csc(n1)CC(NC(=O)C1CC1C)C(=O)N1CCCC(N1)C(=O)OCC(C)(C)C2 .
## Output 21.4

## Input Recall and state the measured viability, T/C for C=CC(=O)Nc1cc(Nc2nccc(-c3cn(C)c4ccccc34)n2)c(OC)cc1N(C)CCN(C)C + CCn1c(-c2cccnc2C(C)OC)c2c3cc(ccc31)N1CCOC(CC(NC(=O)C(C(C)C)N(C)C(=O)C3(F)CCN(C(=O)C#CC(C)(C)N(C)C)CC3)C(=O)N3CCCC(N3)C(=O)OCC(C)(C)C2)C1 .
## Output 65.3

## Input Recall and state the measured viability, T/C for Nc1ccn(C2OC(CO)C(O)C2(F)F)c(=O)n1 (stereo not given) + CCn1c(-c2cccnc2C(C)OC)c2c3cc(ccc31)N1CCOC(CC(NC(=O)C(C(C)C)N(C)C(=O)C3(F)CCN(C(=O)C#CC(C)(C)N(C)C)CC3)C(=O)N3CCCC(N3)C(=O)OCC(C)(C)C2)C1 .
## Output 67.1

Each recorded value in this set is attributed to PubChem BioAssay AID2060900.
